Recorded Body weight(g) increased, one value per entry.
- System: nutritional obesity rats
- ASSAY_METHOD_TEXT: Body weight of nutritional obesity rats on high-fat feed, intragastric drug for 30 d (Example 17); also: test concentration or dose not given here
- Format: in vivo, rat
- CONDITIONS: Table 1; increase over 30 d of administration, high-fat feed; x ± s

- CC(=O)OC1CC(C)(C)C(=C=C/C(C)=C/C=C/C(C)=C/C=C/C=C(C)/C=C/C=C(\C)C(=O)CC23OC2(C)CC(OC(=O)CC(O)(CC(=O)OC[C@H](O)[C@H]2OC(=O)C(O)=C2O)C(=O)O)CC3(C)C)[C@](C)(O)C1 (some centres unmarked): 18.21 ± 1.12ΔΔ g

Consider now this further molecule.
The recorded Body weight(g) increased for entry C\C(C=C=C1C(C)(C)CC(OC(=O)N2CCOCC2)C[C@@]1(C)O)=C/C=C/C(C)=C/C=C/C=C(C)/C=C/C=C(\C)C(=O)CC12OC1(C)CC(OC(=O)N1CCOCC1)CC2(C)C (some centres unmarked) [compound 12, fucoxanthol bi-morpholino carbamate] equals 12.12 ± 1.25ΔΔ g
